Recorded pIC50, one value per entry.
assay-system: Human Carbonic Anhydrase I (Homo sapiens, UniProt P00915)
Sequence (P00915 whole entry): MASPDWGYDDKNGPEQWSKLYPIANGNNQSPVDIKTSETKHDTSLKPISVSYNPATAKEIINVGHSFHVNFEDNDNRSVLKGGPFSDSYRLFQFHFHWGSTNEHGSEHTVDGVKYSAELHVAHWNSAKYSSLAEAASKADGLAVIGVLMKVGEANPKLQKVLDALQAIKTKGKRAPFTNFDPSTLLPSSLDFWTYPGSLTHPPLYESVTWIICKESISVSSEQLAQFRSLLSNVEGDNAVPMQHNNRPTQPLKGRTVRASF
test: Carbonic anhydrase inhibition (CO2 hydration, time to pH drop)
Type: biochemical
measurement-context: read-out: CAI IC50
Bear in mind: pIC50 is minus log10 of a mol/L concentration; give just that figure.

C=C[C@@]12CCc3cc(O)ccc3[C@H]1CC[C@]1(C)[C@@H](OC(=O)c3cccc(S(N)(=O)=O)c3)CC[C@H]12 [Example 1] ... 5.41

--- query ---
Task: Please give the documented pIC50 of C[C@]12CC[C@@H]3c4ccc(OS(N)(=O)=O)cc4CC[C@H]3[C@@H]1CC[C@@H]2O [Estradiol-3-sulfamate]
Output: 6.80
